System: HEK-293T
ASSAY_EXPLANATION: Multiplex assay against HEK293T
Type: toxicity, cell-based
REPORTED_CONDITIONS: human, 24 h, 10 µM, compound concentration 10 uM, replicate 1
Lab note: anything with Total Cell Count below 500 is marked YES; values at 500 or higher are marked NO.

Some solved entries appear below for comparison.
CCCOc1ccc2[nH]cc(C3=CCNCC3)c2n1.Cl: NO
Cc1cnc(-c2cc(N3CCN(C(=O)CCS(C)(=O)=O)CC3)ncc2Cl)c(C)c1: NO
O=C1[C@H](Cc2ccc(O)cc2)N2C(=O)CCN(C(=O)NCc3ccccc3)[C@H]2CN1Cc1cccc2ccccc12: YES
CN[C@@H](C)C(=O)N[C@H](C(=O)N1CCC[C@H]1C(=O)Nc1snnc1-c1ccccc1)C1CCCCC1: YES
CCCCC(=O)N(Cc1ccc(-c2ccccc2-c2nnn[nH]2)cc1)[C@H](C(=O)O)C(C)C: NO
Cc1cccc(NC(=O)CN2CCC(c3ccccn3)CC2)c1.Cl.Cl: YES
O=C(CCCc1ccccc1)Nc1nc2ccccc2c(=O)s1: NO
CC(C)c1noc(N2CCC(COc3ccc(-c4ccc(S(C)(=O)=O)cc4)nc3)CC2)n1: YES

Query molecule follows.
Req: Would you kindly verify if Total Cell Count of `NCCc1cn(S(=O)(=O)c2c(Cl)nc3sccn23)c2ccccc12.O=C(O)C(=O)O` is strictly less than 500?
Resp: YES

====

Test system: HEK-293T
ASSAY_EXPLANATION: Multiplex assay against HEK293T
Assay type: toxicity, cell-based
REPORTED_CONDITIONS: human, 48 h, 10 µM, compound concentration 10 uM, replicate 2
Lab note: anything with Population Mitotic Cells (%) below 50% is marked Condition met; values at 50% or higher are marked Condition not met.

N#Cc1c(Oc2cccc(OS(=O)(=O)CCCC(F)(F)F)c2)cccc1C(F)(F)F: Condition met
CCC(=O)N1CCN(c2ccc(-n3c(=O)ccc4cnc5ccc(-c6cnc7ccccc7c6)cc5c43)cc2C(F)(F)F)CC1: Condition met
Cc1c(CC(=O)O)c2cccnc2n1Cc1ccc(S(C)(=O)=O)cc1C(F)(F)F: Condition not met
Cc1noc(-c2ccc(-c3ccc(CC(=O)O)cc3)cc2)c1NC(=O)O[C@H](C)c1ccccc1Cl: Condition not met
CCCCCC(O)/C=C/[C@H]1C(=O)CC(O)C1C/C=C\CCCC(=O)O (some centres not stated): Condition met

Req: Would you kindly verify if Population Mitotic Cells (%) of Cl.NCCc1ccc(O)c(O)c1 [DOPAMINE HYDROCHLORIDE] is strictly less than 50%?
Resp: Condition not met

Req: Would you kindly verify if Population Mitotic Cells (%) of `CN(C)C(=O)Cn1cc(-c2ccc(-c3cncc4ccccc34)cc2)cn1` is strictly less than 50%?
Resp: Condition met

Req: Would you kindly verify if Population Mitotic Cells (%) of `CC(C)(C)c1cc(NC(=O)Nc2ccc(-c3cn4c(n3)sc3cc(OCCN5CCOCC5)ccc34)cc2)no1` is strictly less than 50%?
Resp: Condition met

Req: Would you kindly verify if Population Mitotic Cells (%) of `CCCOc1ccc2[nH]cc(C3=CCNCC3)c2n1.Cl` is strictly less than 50%?
Resp: Condition not met

Req: Would you kindly verify if Population Mitotic Cells (%) of `CCCCC1=NC2(CCCC2)C(=O)N1Cc1ccc(-c2ccccc2-c2nnn[nH]2)cc1` is strictly less than 50%?
Resp: Condition not met

Req: Would you kindly verify if Population Mitotic Cells (%) of `NCCc1cn(S(=O)(=O)c2c(Cl)nc3sccn23)c2ccccc12.O=C(O)C(=O)O` is strictly less than 50%?
Resp: Condition met

Data provenance: ChEMBL document CHEMBL5058577
